pIC50: −log10 of the molar value.
Target or system UniProtKB P00742; recorded quantity pIC50.
Sequence (P00742 235-488 limits assumed): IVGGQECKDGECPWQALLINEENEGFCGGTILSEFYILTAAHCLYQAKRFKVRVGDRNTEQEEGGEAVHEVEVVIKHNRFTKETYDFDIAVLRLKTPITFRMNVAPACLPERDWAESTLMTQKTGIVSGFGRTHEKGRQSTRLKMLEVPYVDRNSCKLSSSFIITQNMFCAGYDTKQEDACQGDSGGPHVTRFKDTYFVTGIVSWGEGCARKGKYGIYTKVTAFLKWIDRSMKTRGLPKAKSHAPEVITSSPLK
Sequence (P00742 41-179 partner limits assumed): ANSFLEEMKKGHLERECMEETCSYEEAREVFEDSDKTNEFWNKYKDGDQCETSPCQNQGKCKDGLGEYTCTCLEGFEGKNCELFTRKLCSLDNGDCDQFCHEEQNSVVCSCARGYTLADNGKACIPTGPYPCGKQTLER
Quantity Kind: pIC50

O=C(O)COCC12CN(S(=O)(=O)c3ccc4cc(Cl)ccc4c3)CC(=O)N1CC1(CCN(c3ccncc3)CC1)O2 (stereo not shown) [Example 5] ... 8.54
O=C1CN(S(=O)(=O)c2ccc3cc(Cl)ccc3c2)CC2(C(=O)O)OC3(CCN(c4ccncc4)CC3)CN12 (stereo not shown) [Example 50] ... 8.72
COCC12CN(S(=O)(=O)C=Cc3ccc(Cl)s3)CC(=O)N1CC1(CCN(c3ccncc3)CC1)N2 (stereo not shown) [Example 712] ... 8.74
O=C1CN(S(=O)(=O)c2ccc3cc(Cl)ccc3c2)CC2(CN3CCOCC3)OC3(CCN(c4ccncc4)CC3)CN12 (stereo not shown) [Example 61] ... 8.55
